- assayed.target: DNA gyrase (Escherichia coli)
- assay.overview: Inhibition effect on Escherichia coli Wild Type DNA gyrase Supercoiling activity
observable: pIC50
The scale used: pIC50 is minus the common logarithm of the concentration in molar units.

Note to self: pIC50 recorded for `N[C@H]1CCCN(c2c(F)cc3c(=O)c(C(=O)O)cn(C4CC4)c3c2F)C1` was 5.06

Reference source: BindingDB's records for doi:10.1021/jm030272n
